- assay: AUC (0 to infinity) in BALB/c mouse at 20 mg/kg, ip measured upto 24 hrs by LC-MS/MS analysis
- Type: ADME, organism-based
- Set-up: dose 20 mg/kg, time < 24 hrs, route ip
- setup conditions: in vivo
quantity: AUC(0-inf) (ng·h/mL)
Write down the numeric answer in ng·h/mL and omit the unit.

INPUT: So what's the measured AUC(0-inf) for this one? COC(=O)[C@]1([C@H]2CCn3c2nc2ccccc2c3=O)NCCc2c1[nH]c1ccccc21 (racemic)
OUTPUT: 11200

---

Overview of reported IC50 at 44 h across a group of molecules:
- assay: Cytotoxicity against human fR2 cells assessed as cell growth inhibition incubated for 44 hrs by MTT assay
- Assay type: toxicity, cell-based

COC(=O)[C@]1([C@H]2CCN(C(=O)c3ccccc3[N+](=O)[O-])C2=O)NCCc2c1[nH]c1ccccc21	> 100 µM

INPUT: So what's the measured IC50 at 44 h for this one? COC(=O)[C@]1([C@H]2CCCNC2=O)NCCc2c1[nH]c1ccccc21
OUTPUT: > 100 µM

INPUT: So what's the measured IC50 at 44 h for this one? COC(=O)[C@@H]1Cc2c([nH]c3ccccc23)[C@@](C(=O)OC)([C@H]2CCNC2=O)N1
OUTPUT: > 100 µM

INPUT: So what's the measured IC50 at 44 h for this one? COC(=O)[C@]1([C@H]2CCn3c2nc2ccccc2c3=O)NCCc2c1[nH]c1cc(OC)ccc21 (racemic)
OUTPUT: 17.9 µM

INPUT: So what's the measured IC50 at 44 h for this one? COC(=O)[C@]1([C@H]2CCCN(C(=O)c3ccccc3Cl)C2=O)NCCc2c1[nH]c1ccccc21 (racemic)
OUTPUT: > 100 µM

INPUT: So what's the measured IC50 at 44 h for this one? COC(=O)[C@]1([C@@H]2CCNC2=O)NCCc2c1[nH]c1cc(OC)ccc21
OUTPUT: > 100 µM

INPUT: So what's the measured IC50 at 44 h for this one? COC(=O)[C@]1([C@H]2CCN(C(=O)c3ccc(F)cc3)C2=O)NCCc2c1[nH]c1ccccc21 (racemic)
OUTPUT: 35.8 µM

INPUT: So what's the measured IC50 at 44 h for this one? COC(=O)[C@]1([C@H]2CCN(C(=O)c3ccccc3[N+](=O)[O-])C2=O)NCCc2c1[nH]c1cc(OC)ccc21
OUTPUT: 17.8 µM

---

- assay: Elimination half life in BALB/c mouse at 20 mg/kg, ip measured upto 24 hrs by LC-MS/MS analysis
- Assay type: ADME, organism-based
- setup conditions: in vivo, read-out: beta t1/2 (converted)
quantity: half-life (h)
Write down the numeric answer in h and omit the unit.

INPUT: So what's the measured half-life for this one? COC(=O)[C@]1([C@H]2CCn3c2nc2ccccc2c3=O)NCCc2c1[nH]c1ccccc21 (racemic)
OUTPUT: 1.6

---

- Tested on: HL-60
- assay: Cytotoxicity against human HL-60 cells
- Format: functional, cell-based
quantity: IC50 (µM)
Write down the numeric answer in µM and omit the unit.

INPUT: So what's the measured IC50 for this one? COC(=O)[C@]1([C@H]2CCn3c2nc2ccccc2c3=O)NCCc2c1[nH]c1cc(OC)ccc21 (racemic)
OUTPUT: 9.2
